Entries annotated with measured growth
System: NCI-H226 lung
EXPERIMENT_DESCRIPTION: NCI-60 one-dose screen, 48 h (100 = growth as untreated, 0 = no growth, -100 = all killed)
TEST_PARAMETERS: 10 µM
Compounds without any hit were thinned out: in the full panel of roughly 83,000, 20% have a hit.
Give the quantity in %, number only.

COMPOUND	UNIT_NAME	growth
C/C(=N\NC(N)=S)c1ccc(Nc2nc(SC(C)C)nc(-c3ccccc3)c2C#N)cc1	%	27.5

Request: Query (compound): "Cc1ccc(S(=O)(=O)c2nc(-c3ccccc3)oc2S(=O)(=O)CC(=O)N2CCCC2)cc1" ; field requested: growth
Response: 56.3

Request: Query (compound): "O=C(Nc1cccc(C(F)(F)F)c1)c1cncc(C#Cc2cnc3cccnn23)c1" ; field requested: growth
Response: 27.1

Request: Query (compound): "C=CCn1c(SCC(=O)Nc2ccc(C(=O)/C=C/c3ccccc3)cc2)nnc1-c1c[nH]c2ccccc12" ; field requested: growth
Response: 35.4

Request: Query (compound): "O=C(N/C(=C1/OCCN1Cc1ccccc1)[P+](c1ccccc1)(c1ccccc1)c1ccccc1)c1ccccc1" ; field requested: growth
Response: -5.51

Request: Query (compound): "CC1=C2C(=C[C@@](C)(CO)[C@@H]2O)/C(=N\N)[C@](C)(O)C12CC2" ; field requested: growth
Response: -41.2

Request: Query (compound): "CC(C)CCSc1nc(NC2CC2)c(C#N)c(-c2ccc(C(C)C)cc2)n1" ; field requested: growth
Response: 106

Request: Query (compound): "O=C(CSc1nnc(-c2c[nH]c3ccccc23)n1-c1ccccc1)Nc1ccc(C(=O)/C=C/c2cccc([N+](=O)[O-])c2)cc1" ; field requested: growth
Response: 72.7

Request: Query (compound): "CCN(CC)CCOc1ccc(C(=C(C)c2ccccc2)c2ccc(OCCN(CC)CC)cc2)cc1" ; field requested: growth
Response: 71

Request: Query (compound): CN1C(=O)N(C)C2SC(N/N=C/C=C/c3ccccc3)=NC21 (stereo not drawn) ; field requested: growth
Response: 79.3

Request: Query (compound): "CC(=O)c1ccc(NC(=O)NCn2c(=O)[nH]c3ccccc3c2=O)cc1" ; field requested: growth
Response: 87.3

Request: Query (compound): "CC(C)C(=O)Nc1ccc(C(=O)NC(=S)Nc2ccc(C(=O)O)cc2)cc1" ; field requested: growth
Response: 95.6
